Target: androgen receptor (Rattus norvegicus)
Construct: from tissue; host or cells: ventral prostate cytosol of gonadectomized male Sprague-Dawley rats
Sequence (P15207 whole entry S389L): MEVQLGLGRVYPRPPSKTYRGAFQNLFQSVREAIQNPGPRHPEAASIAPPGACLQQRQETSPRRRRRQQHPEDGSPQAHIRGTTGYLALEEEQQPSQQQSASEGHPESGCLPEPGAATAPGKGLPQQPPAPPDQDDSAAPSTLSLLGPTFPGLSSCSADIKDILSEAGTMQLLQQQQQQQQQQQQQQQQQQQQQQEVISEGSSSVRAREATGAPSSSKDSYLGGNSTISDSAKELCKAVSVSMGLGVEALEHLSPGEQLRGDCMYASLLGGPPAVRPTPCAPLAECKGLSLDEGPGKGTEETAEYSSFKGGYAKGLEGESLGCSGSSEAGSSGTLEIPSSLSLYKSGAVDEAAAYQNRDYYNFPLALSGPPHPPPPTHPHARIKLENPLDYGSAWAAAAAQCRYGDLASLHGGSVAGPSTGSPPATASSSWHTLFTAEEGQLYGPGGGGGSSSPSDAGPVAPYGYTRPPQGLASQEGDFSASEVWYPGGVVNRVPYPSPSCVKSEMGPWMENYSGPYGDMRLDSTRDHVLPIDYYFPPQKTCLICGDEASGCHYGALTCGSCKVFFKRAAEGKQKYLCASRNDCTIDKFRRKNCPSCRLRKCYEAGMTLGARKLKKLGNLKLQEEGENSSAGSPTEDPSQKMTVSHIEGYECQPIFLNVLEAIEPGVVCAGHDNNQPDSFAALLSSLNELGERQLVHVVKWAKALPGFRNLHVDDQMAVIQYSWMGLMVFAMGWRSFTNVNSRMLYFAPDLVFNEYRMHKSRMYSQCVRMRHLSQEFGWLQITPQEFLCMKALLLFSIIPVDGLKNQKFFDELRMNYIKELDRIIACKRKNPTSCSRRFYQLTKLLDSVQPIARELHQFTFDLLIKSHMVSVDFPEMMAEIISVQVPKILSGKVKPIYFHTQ
Experiment: Androgen receptor (AR) assay: inhibition of [3H]R1881 binding, prostate cytosol
Details: Table 4′; E^−6
Description: The manner in which the percentage of inhibition is determined is described in “Other Tests; D-Androgen Receptor (AR) Assays”. Lower numbers are desirable. […] Androgen binding was measured using the hydroxylapatite assay (HAP). […] After incubation with HAP and 10 minutes of centrifugation at 1,000×g, the pellet was washed 3 times with 1 ml buffer P. Thereafter, the radioactivity was extracted from the pellet by incubation at room temperature for 60 minutes with 1 ml EtOH. […]
metric_name: inhibition at 1 µM (%)
Answers are plain numbers, in %.

// known answers, use as guide
CCOc1ccc2c(c1)CCC1C2CC[C@@]2(C)C1CC[C@@]21CCC(C)(C)C(=O)O1 (some centres unmarked) [EM-1369]: 1
CC1(C)CCC2(CCC3C4CCc5c(cc(Cl)c(OS(C)(=O)=O)c5Cl)C4CCC32C)OC1=O (centres unmarked) [EM-1392-CS]: 0
COc1cc2c(cc1C)C1CCC3(C)C(CCC34CCC(C)(C)C(=O)O4)C1CC2 (centres unmarked) [EM-1412-CS]: 0
COCCOc1ccc2c(c1)CCC1C2CCC2(C)C1CCC21CCC(C)(C)C(=O)O1 (centres unmarked) [EM-1368-CS]: 0
CC1(C)CC[C@@]2(CCC3C4CCc5cc(C(N)=O)ccc5C4CCC32C)OC1=O (some centres unmarked) [EM-1404]: 0

Would you mind listing inhibition at 1 µM for each of the following compounds?
1. CC1(C)CC[C@@]2(CCC3C4CCc5cc(F)ccc5C4CC[C@@]32C)OC1=O (some centres unmarked) [EM-1157-CS]
2. COc1ccc2c(c1)C(=O)CC1C2CC[C@@]2(C)C1CC[C@@]21CCC(C)(C)C(=O)O1 (some centres unmarked) [EM-1394]
3. CC1CCC2(CCC3C4CCc5ccccc5C4CCC32C)OC1=O (centres unmarked) [EM-1025]
4. COc1ccc2c(c1)CCC1C2CCC2(C)C1CCC21CCC(C)(C)C(=O)O1 (centres unmarked) [EM-1370]
5. CC12CCC3c4ccc(F)cc4CCC3C1CCC21CCCC(=O)O1 (centres unmarked) [EM-1170-CS]
6. COCCOc1cc2c(cc1Cl)C1CCC3(C)C(CCC34CCC(C)(C)C(=O)O4)C1CC2 (centres unmarked) [EM-1371-CS]
7. CC1(C)CCC2(CCC3C4CCc5ccccc5C4CCC32C)OC1=O (centres unmarked) [CS-224]
8. CN(C)C(=O)c1ccc2c(c1)CCC1C2CCC2(C)C1CCC21CCC(C)(C)C(=O)O1 (centres unmarked) [EM-1403]

0
0
0
2
1
1
0
0

Would you mind listing inhibition at 1 µM for each of the following compounds?
1. CC1(C)CCC2(CCC3C4CCc5cc(OS(C)(=O)=O)ccc5C4CCC32C)OC1=O (centres unmarked) [EM-1365-CS]
2. COCCOc1ccc2c(c1)C(=O)CC1C2CCC2(C)C1CCC21CCC(C)(C)C(=O)O1 (centres unmarked) [EM-1408-CS]
3. CN(C)CCOc1ccc2c(c1)CCC1C2CCC2(C)C1CCC21CCC(C)(C)C(=O)O1 (centres unmarked) [EM-1389-CS]
4. CC1(C)CCC2(CCC3C4CCc5cc(OCCN6CCCCC6)ccc5C4CCC32C)OC1=O (centres unmarked) [EM-1390-CS]

[0, 0, 0, 0]

###

I'd appreciate it if you could supply Antiandrogenic Activity Shionogi, DHT E^−6 values for the items below.
Test system: Shionogi mouse mammary carcinoma cells
Assay: Antiandrogenic activity: inhibition of DHT-induced proliferation of Shionogi cells
Assay type: cell-based
Settings: with DHT, E^−6
Numbers only.

CC(C)C[C@@H]1CC2C3C=CC4=CC(=O)CC[C@]4(C)C3CC[C@]2(C)C1=O (stereo partly shown): −43
C[C@]12CCC(=O)C=C1C=C[C@@H]1[C@@H]2CC[C@]2(C)C(=O)C3(CC4CC4C3)C[C@@H]12 (stereo partly shown): −27

Would you mind listing Antiandrogenic Activity Shionogi, DHT E^−6 for each of the following compounds?
1. CCCC(=O)O[C@]1(C)C(=O)CCC2C3C=C(C)C4=CC(=O)CC[C@]4(C)C3CC[C@@]21C (stereo partly shown)
2. CC(=O)O[C@]1(C)C(=O)CCC2C3C=C(C)C4=CC(=O)C=C[C@]4(C)C3CC[C@@]21C (stereo partly shown)

−72
−106

###

Target: human type 1 17β-hydroxysteroid dehydrogenase (Homo sapiens, UniProt P14061)
Construct: expressed in transfected cells; host or cells: 293 cells, transient transfection; 100 000×g supernatant (cytosol)
Sequence (P14061 whole entry): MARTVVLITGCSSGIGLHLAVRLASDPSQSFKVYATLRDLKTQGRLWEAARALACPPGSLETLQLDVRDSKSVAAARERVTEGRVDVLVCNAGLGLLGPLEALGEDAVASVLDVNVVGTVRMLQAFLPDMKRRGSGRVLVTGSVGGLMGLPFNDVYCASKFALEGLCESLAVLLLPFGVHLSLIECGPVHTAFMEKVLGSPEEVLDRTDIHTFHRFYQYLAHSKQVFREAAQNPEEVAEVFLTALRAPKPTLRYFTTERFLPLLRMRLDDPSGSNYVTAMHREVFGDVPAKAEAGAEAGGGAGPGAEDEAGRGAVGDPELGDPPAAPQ
Test: Enzymatic assay for type 1 17β-HSD
Assay type: biochemical
Conditions: 3 · 10^−6 M; value in square brackets; read-out: Inhibition Type 1 17B-HSD Activity [% Inh. at 3 · 10^−6 M]
I'd appreciate it if you could supply inhibition at 3 µM values for the items below.
Give bare numbers, in %.

CCC[C@@H]1CC2C3C=CC4=CC(=O)CC[C@]4(C)C3CC[C@]2(C)C1=O (some centres unmarked): 64
CC12C=CC(=O)C=C1C=CC1C2CCC2(C)C(=O)C3(CCCCC3)CC12 (centres unmarked): 23
CCCC(=O)O[C@]1(C)C(=O)CCC2C3C=C(C)C4=CC(=O)CC[C@]4(C)C3CC[C@@]21C (some centres unmarked): 15
CC(C)C[C@@H]1CC2C3C=CC4=CC(=O)CC[C@]4(C)C3CC[C@]2(C)C1=O (some centres unmarked): 31

CCC[C@]1(F)CC2C3C=CC4=CC(=O)CC[C@]4(C)C3CC[C@]2(C)C1=O (some centres unmarked) yielded inhibition at 3 µM of 34

###

Test system: Shionogi mouse mammary carcinoma cells
Test: Antiandrogenic activity: inhibition of DHT-induced proliferation of Shionogi cells
Format: cell-based
Settings: Table 4′; DHT-induced proliferation, E^−6 (10^−6 M)
Rule: yes for Antiandrogenic Activity Shionogi, DHT E^−6 not less than -20%, no for anything less.

Worked cases, answers included:
CN(C)C(=O)c1cc2c(cc1O)CCC1C2CCC2(C)C1CCC21CCC(C)(C)C(=O)O1 (centres unmarked) [EM-01661-B]: yes
C=CCC1CCC2(CCC3C4CCc5cc(O)ccc5C4CCC32C)OC1=O (centres unmarked) [PB-132-152]: yes
CC1CCC2(CCC3C4CCc5cc(O)c([N+](=O)[O-])cc5C4CCC32C)OC1=O (centres unmarked) [EM-1131]: no

# bool: Antiandrogenic Activity Shionogi, DHT E^−6 of CC1CC(=O)OC2(CCC3C4CCc5cc(O)ccc5C4CCC32C)C1 (centres unmarked) [PB-132-142] >= -20%
yes

# bool: Antiandrogenic Activity Shionogi, DHT E^−6 of CCOc1ccc2c(c1)CCC1C2CC[C@@]2(C)C1CC[C@@]21CCC(C)(C)C(=O)O1 (some centres unmarked) [EM-1369] >= -20%
no

# bool: Antiandrogenic Activity Shionogi, DHT E^−6 of CC1(C)CCC2(CCC3C4CCc5cc(OCCN6CCCCC6)ccc5C4CCC32C)OC1=O (centres unmarked) [EM-1390-CS] >= -20%
no

# bool: Antiandrogenic Activity Shionogi, DHT E^−6 of CC1(C)CC[C@@]2(CCC3C4CCc5cc(F)ccc5C4CC[C@@]32C)OC1=O (some centres unmarked) [EM-1157-CS] >= -20%
yes

# bool: Antiandrogenic Activity Shionogi, DHT E^−6 of COCCOc1cc2c(cc1F)C1CCC3(C)C(CCC34CCC(C)(C)C(=O)O4)C1CC2 (centres unmarked) [EM-1393-CS] >= -20%
no

###

System: Shionogi mouse mammary carcinoma cells
Test: Antiandrogenic activity: inhibition of DHT-induced proliferation of Shionogi cells
Type: cell-based
Details: with DHT, E^−6
I'd appreciate it if you could supply Antiandrogenic Activity Shionogi, DHT E^−6 values for the items below.
Numbers only.

// known answers, use as guide
CCC[C@@H]1CC2C3C=CC4=CC(=O)CC[C@]4(C)C3CC[C@]2(C)C1=O (stereo partly shown): −71
CC1=C[C@@H]2[C@H](CC[C@]3(C)C(=O)C4(CCCCC4)C[C@@H]23)[C@@]2(C)CCC(=O)C=C12: −7
CC12C=CC(=O)C=C1C=CC1C2CCC2(C)C(=O)C3(CCCCC3)CC12 (stereo not shown): −13

CCC[C@]1(F)CC2C3C=CC4=CC(=O)CC[C@]4(C)C3CC[C@]2(C)C1=O (stereo partly shown) yielded Antiandrogenic Activity Shionogi, DHT E^−6 of −51

###

Biological target: human type 5 17β-hydroxysteroid dehydrogenase (Homo sapiens)
Construct: screen again a human placental λgt11 cDNA to get the full length cDNA clone; expressed in transfected cells; host or cells: human embryonal kidney 293 cells (pCMV / pCMV-neo vector)
Sequence (P42330 whole entry): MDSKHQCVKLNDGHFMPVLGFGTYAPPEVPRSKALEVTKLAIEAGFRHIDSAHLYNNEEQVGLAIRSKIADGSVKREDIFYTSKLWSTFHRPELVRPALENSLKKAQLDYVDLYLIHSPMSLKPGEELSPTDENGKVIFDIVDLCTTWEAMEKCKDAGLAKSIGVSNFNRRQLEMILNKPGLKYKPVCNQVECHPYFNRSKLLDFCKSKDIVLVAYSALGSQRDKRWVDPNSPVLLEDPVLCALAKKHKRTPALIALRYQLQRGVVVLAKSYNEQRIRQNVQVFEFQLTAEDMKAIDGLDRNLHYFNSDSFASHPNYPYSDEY
Assay: Inhibition of human type 5 17β-HSD activity in transfected 293 cells
Assay type: cell-based
Conditions: read-out: Inhibition Type V 17B-HSD IC50
I'd appreciate it if you could supply pIC50 values for the items below.
Give bare numbers, as −log10 of the molar value.

// known answers, use as guide
CC(C)C[C@@H]1CC2C3C=CC4=CC(=O)CC[C@]4(C)C3CC[C@]2(C)C1=O (stereo partly drawn): 8.05
CCC[C@]1(F)CC2C3C=CC4=CC(=O)CC[C@]4(C)C3CC[C@]2(C)C1=O (stereo partly drawn): 8.34
CC(=O)O[C@]1(C)C(=O)CCC2C3C=C(C)C4=CC(=O)C=C[C@]4(C)C3CC[C@@]21C (stereo partly drawn): 8.05
CC12C=CC(=O)C=C1C=CC1C2CCC2(C)C(=O)C3(CCCCC3)CC12 (stereo not drawn): 7.03
CCC[C@@H]1CC2C3C=CC4=CC(=O)CC[C@]4(C)C3CC[C@]2(C)C1=O (stereo partly drawn): 8.00

Consider the record given below.
CCCC(=O)O[C@]1(C)C(=O)CCC2C3C=C(C)C4=CC(=O)CC[C@]4(C)C3CC[C@@]21C (stereo partly drawn) yielded pIC50 of 8.42
